Data export: pKi values recorded with human CB1 receptor (Homo sapiens, UniProt P21554).
Sequence (P21554 whole entry): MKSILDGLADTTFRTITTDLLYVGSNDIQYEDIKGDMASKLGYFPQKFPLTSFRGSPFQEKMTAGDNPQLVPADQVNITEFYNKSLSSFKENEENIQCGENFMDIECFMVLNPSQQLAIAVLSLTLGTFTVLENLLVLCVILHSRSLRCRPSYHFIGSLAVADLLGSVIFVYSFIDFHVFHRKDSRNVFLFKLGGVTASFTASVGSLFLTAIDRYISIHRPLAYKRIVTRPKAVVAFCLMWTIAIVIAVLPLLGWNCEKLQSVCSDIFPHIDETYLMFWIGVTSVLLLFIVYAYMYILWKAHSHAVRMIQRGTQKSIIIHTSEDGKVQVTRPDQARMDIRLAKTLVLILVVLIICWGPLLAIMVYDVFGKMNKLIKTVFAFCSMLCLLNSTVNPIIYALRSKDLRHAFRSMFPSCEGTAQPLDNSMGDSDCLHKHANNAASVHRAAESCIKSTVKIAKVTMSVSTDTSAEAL
pKi: −log10 of the molar value.

Past entries and their recorded results:
# Compound, Target Or System, pKi
data = [
    ("CCCCc1ccc(O)c(-c2cc(C)ccc2O)c1 [Compound 51]", "human CB1 receptor (Homo sapiens, UniProt P21554)", "~6.00"),
    ("Oc1ccccc1-c1ccccc1O [Compound 40, 2-(2-hydroxyphenyl)phenol]", "human CB1 receptor (Homo sapiens, UniProt P21554)", "< 6.00"),
    ("Cc1ccc(O)c(-c2cc(C)ccc2O)c1 [Compound 41]", "human CB1 receptor (Homo sapiens, UniProt P21554)", "< 6.00"),
]

Let us move to another entry and its pKi.
Q: Sample CCCc1ccc(O)c(-c2cc(C)ccc2O)c1 [Compound 50] — what was its pKi?
A: < 6.00

---

- Target Or System: UniProt:Q14330
- Sequence (Q14330 whole entry): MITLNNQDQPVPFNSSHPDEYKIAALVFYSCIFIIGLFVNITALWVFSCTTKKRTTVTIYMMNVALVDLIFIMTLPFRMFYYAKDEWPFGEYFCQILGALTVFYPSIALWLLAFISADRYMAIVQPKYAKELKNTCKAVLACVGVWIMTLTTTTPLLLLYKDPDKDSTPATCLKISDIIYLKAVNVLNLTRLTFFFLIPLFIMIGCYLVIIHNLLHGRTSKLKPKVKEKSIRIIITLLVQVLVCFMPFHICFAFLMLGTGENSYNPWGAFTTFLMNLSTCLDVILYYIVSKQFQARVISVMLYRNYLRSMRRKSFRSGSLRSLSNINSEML
- Test Summary: cell-based
- Protocol Conditions: CHO, read-out: % inhibition of Δ9-THC (10 µM)-induced β-arrestin recruitment at GPR18, test compound at 10 µM
What inhibition at 10 µM was measured for each of the following?
Give bare numbers, in %.

# Molecule, inhibition at 10 µM [%]
data = [
    ("COc1ccc(-c2oc3cc(OC)ccc3c2C(=O)c2ccc(C#N)cc2)cc1 [Compound 6, reference compound]", 81),
    ("CCCCCCCCc1ccc(O)c(-c2cc(CCC)ccc2O)c1 [Compound 63]", 123),
    ("Cc1c(C(=O)NN2CCCCC2)nn(-c2ccc(Cl)cc2Cl)c1-c1ccc(Cl)cc1 [Compound 5, rimonabant, reference compound]", 94),
    ("CCCCc1ccc(O)c(-c2cc(CC)ccc2O)c1 [Compound 55]", 40),
    ("C=CCc1ccc(O)c(-c2ccc(O)c(CC=C)c2)c1 [Compound 10, honokiol, reference compound]", 45),
    ("CCCCc1ccc(O)c(-c2cc(CCC)ccc2O)c1 [Compound 58]", 104),
]

Hello, I would appreciate it if you could give inhibition at 10 µM for each entry below.
1. CCCc1ccc(O)c(-c2cc(CCC)ccc2O)c1 [Compound 12, tetrahydromagnolol]
2. CCCc1ccc(O)c(-c2ccccc2O)c1 [Compound 46]

A:
1. 64
2. 0

---

Assignment: determine reported IC50 for the given compounds.
- Target Or System: human GPR55 (Homo sapiens, UniProt Q9Y2T6)
- Sequence (Q9Y2T6 whole entry): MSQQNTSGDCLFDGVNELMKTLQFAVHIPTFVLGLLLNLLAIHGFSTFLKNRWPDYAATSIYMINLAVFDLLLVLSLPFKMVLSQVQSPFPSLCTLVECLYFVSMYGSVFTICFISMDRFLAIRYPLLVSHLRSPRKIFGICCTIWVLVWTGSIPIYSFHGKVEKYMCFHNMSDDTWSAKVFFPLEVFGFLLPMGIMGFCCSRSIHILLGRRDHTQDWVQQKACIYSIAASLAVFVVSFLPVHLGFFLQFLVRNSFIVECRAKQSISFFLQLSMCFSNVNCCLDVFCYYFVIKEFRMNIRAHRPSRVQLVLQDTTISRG
- Test Summary: β-arrestin recruitment assay (PathHunter), CHO cells expressing GPR55
- Protocol Conditions: GPR55 IC50, β-arrestin recruitment, antagonist mode vs. LPI (1 µM)

# Compound, IC50
measured = [
    ("C=CCc1ccc(O)c(-c2cc(CC=C)ccc2O)c1 [Compound 9, reference compound]", "> 10 µM"),
    ("CCCc1ccc(O)c(-c2cc(C(C)(C)C)ccc2O)c1", "~10 µM"),
    ("CCCCCCc1ccc(O)c(-c2cc(CCCCCC)ccc2O)c1", "> 10 µM"),
    ("CCCCCc1ccc(O)c(-c2cc(CCCCC)ccc2O)c1", "> 10 µM"),
    ("CCCCCc1ccc(O)c(-c2cc(CC)ccc2O)c1", "> 10 µM"),
]

For each of the compounds below, note its IC50.
1. CCCCCc1ccc(O)c(-c2cc(CCCC)ccc2O)c1
2. C=CCc1ccc(O)c(-c2ccc(O)c(CC=C)c2)c1 [Compound 10, honokiol, reference compound]
3. CCCCCCc1ccc(O)c(-c2cc(C)ccc2O)c1

A:
1. > 10 µM
2. ~10 µM
3. > 10 µM

# map each compound to its IC50
1. CCCCc1ccc(O)c(-c2cc(C)ccc2O)c1
2. CCCc1ccc(O)c(-c2cc(CC)ccc2O)c1
3. CCCCCCc1ccc(O)c(-c2cc(CCC)ccc2OC)c1 [Compound 61a]

A:
1. > 10 µM
2. > 10 µM
3. ~10 µM
